Where do the numbers come from? From paper PMC5795618.

- Conditions: read-out: intact prodrug Cmax in plasma; rats, IN, 10 mg/kg equivalent
Value type: Cmax (µM)
Give bare numbers, in µM.

### Prompt Provide only the value of recorded Cmax for CC(=O)Oc1ccc(COC(=O)CCC(CP(=O)(O)O)C(=O)O)cc1 (stereo not shown)
### Response 22

###

- Target: recombinant human GCPII protein (Homo sapiens, UniProt Q04609)
- Sequence (Q04609 whole entry): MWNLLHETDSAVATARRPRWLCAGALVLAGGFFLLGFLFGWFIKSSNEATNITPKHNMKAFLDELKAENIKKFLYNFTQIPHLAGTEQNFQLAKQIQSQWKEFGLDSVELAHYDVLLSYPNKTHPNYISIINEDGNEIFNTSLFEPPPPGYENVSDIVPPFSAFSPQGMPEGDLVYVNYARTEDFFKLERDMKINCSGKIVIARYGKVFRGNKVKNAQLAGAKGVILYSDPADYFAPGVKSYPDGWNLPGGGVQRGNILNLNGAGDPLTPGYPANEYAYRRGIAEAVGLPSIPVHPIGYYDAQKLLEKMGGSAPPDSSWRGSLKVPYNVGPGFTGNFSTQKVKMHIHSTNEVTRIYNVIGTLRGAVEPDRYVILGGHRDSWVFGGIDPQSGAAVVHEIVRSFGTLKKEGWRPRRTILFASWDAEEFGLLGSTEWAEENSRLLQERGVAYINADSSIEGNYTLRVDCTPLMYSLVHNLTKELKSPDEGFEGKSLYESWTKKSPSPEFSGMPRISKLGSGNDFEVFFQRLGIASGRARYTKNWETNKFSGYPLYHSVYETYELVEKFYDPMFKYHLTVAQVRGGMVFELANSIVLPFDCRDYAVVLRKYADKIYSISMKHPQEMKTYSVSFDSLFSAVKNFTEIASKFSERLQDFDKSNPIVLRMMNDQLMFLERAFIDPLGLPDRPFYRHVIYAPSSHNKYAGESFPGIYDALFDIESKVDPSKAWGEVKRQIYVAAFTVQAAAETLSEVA
- Method summary: GCPII radioenzymatic activity assay
- Format: biochemical
- Conditions: read-out: IC50(±SEM); GCPII inhibition
Value type: IC50 (nM)
Give bare numbers, in nM.

{"Compound": "CCCCCCCCOC(=O)CCC(CP(=O)(O)O)C(=O)O (stereo not drawn)", "Target": "recombinant human GCPII protein (Homo sapiens, UniProt Q04609)", "IC50, nM": 2}
{"Compound": "CCCCOC(=O)CCC(CP(=O)(O)O)C(=O)O (stereo not drawn)", "Target": "recombinant human GCPII protein (Homo sapiens, UniProt Q04609)", "IC50, nM": 1}

Attention now shifts to the item below.
### Prompt For the compound O=C(CCC(CP(=O)(O)O)C(=O)O)OCc1ccccc1 (stereo not drawn) , give its reported IC50.
### Response 20

###

- Conditions: read-out: intact prodrug Cmax in plasma; rats, IV, 10 mg/kg equivalent
Value type: Cmax (nM)
Give bare numbers, in nM.

### Prompt For CC(=O)Oc1ccc(COC(=O)CCC(CP(=O)(O)O)C(=O)O)cc1 (stereo not shown) , write its Cmax.
### Response 200

###

- Target: recombinant human GCPII protein (Homo sapiens, UniProt Q04609)
- Method summary: GCPII radioenzymatic activity assay
- Type: biochemical
- Conditions: read-out: IC50(±SEM)
Value type: pIC50
Numbers only, as −log10 of the molar value.

### Prompt Recall and state the measured pIC50 for CC(=O)Oc1ccc(COC(=O)CCC(CP(=O)(O)O)C(=O)O)cc1 (stereo not shown) [Compound 1, γ-(4-acetoxybenzyl)-2-PMPA] .
### Response 8.52
